In this section, each of the compounds is paired with its reported inhibition at 10 µM.
Tested on: HIV-1NL4.3
Test: microbe, parasite or virus in culture
Type: cell-based
Settings: Human immunodeficiency virus 1; 10 μM; HIV-1NL4.3 0.1 MOI; TZM-bl cells; luminescence 48 h; read-out: % Inhibition at 10 μM Concentration
Where a name gives a salt, the structure may show the parent alone.
metric.name: inhibition at 10 µM (%)

> print(dat)
                                   compound  numeric.readout
1  CC1=NN=C(c2ccc(N)cc2)c2cc3c(cc2C1)OCO3 [GYKI 52466 hydrochloride]             99.3
2  CCCCc1ncc(/C=C(\Cc2cccs2)C(=O)O)n1Cc1ccc(C(=O)O)cc1 [Eprosartan mesylate]             99.8
3              Oc1c2ccccc2c2c3c(cccc13)N=N2             97.5
